Data provenance: patent US4209439A

assay.name: migration of stabiliser from PVC bottles into water at 50° C.
Assay type: physicochemical
details: water 50° C.; 0.15 pct; 1 month
Would you mind telling me the reported Migration of each entry?
Numbers only, in µg/L.

CCCCOC(=O)C1=C(C)NC(C)=C(C(=O)OCCCC)C1 [L.28552]: 90
CCOC(=O)C1=C(C)NC(C)=C(C(=O)OCC)C1 [L.28501]: 100

Could you now consider this next molecule?
Looking up COC(=O)C1=C(C)NC(C)=C(C(=O)OC)C1 [L.28504] , I found its Migration recorded as 70

====

I'd appreciate it if you could supply Migration values for the items below.
assay.name: migration of stabiliser from PVC into solutions or solvents simulating foods at 50° C.
Type: physicochemical
details: H2O/NaCl (97:3); 0.3; 2 months
Give bare numbers, in µg/L.

Please review the entries below; each comes with its answer.
COC(=O)C1=C(C)NC(C)=C(C(=O)OC)C1: 120
CCOC(=O)C1=C(C)NC(C)=C(C(=O)OCC)C1: 150
CCCCOC(=O)C1=C(C)NC(C)=C(C(=O)OCCCC)C1: 100

Consider now this further compound.
Migration in this record for c1ccc(-c2cc3ccccc3[nH]2)cc1 [2-phenyl indole, reference compound] : 140
